Give measured thallium flux rate (normalised fluorescence) for each item. Keep answers brief.
# Experimental details: thallium flux modulation in parental HEK cells, confirmation, counter-screen for KCC2 modulator project, cell-based, counterscreen 1 (AID 1716)
# Test context: HEK293 parental cells, thallium flux FluoZin2, ouabain; at 10 µM; baseline-ratio fluorescence slope, 10–20 s after thallium
The other results are listed elsewhere or left out. Records with an inconclusive call do not appear.
No unit in the answer, please; the number alone is enough.

What value of thallium flux rate (normalised fluorescence) has been recorded for this entry: O=C(Nc1ccc2oc(-c3ccccc3F)nc2c1)c1ccco1 0.00696

What value of thallium flux rate (normalised fluorescence) has been recorded for this entry: c1cncc(-c2nnc3n2C2(CCCCC2)Cc2ccccc2-3)c1 0.00718

What value of thallium flux rate (normalised fluorescence) has been recorded for this entry: CS(=O)(=O)N(CC(=O)N1CCN(c2ccc(F)cc2)CC1)C1CCCCC1 0.00762

What value of thallium flux rate (normalised fluorescence) has been recorded for this entry: O=C(CSc1ccc(-c2cccs2)nn1)Nc1ccccc1F 0.00368

What value of thallium flux rate (normalised fluorescence) has been recorded for this entry: CCOC(=O)c1c(NC(=S)NC)sc2c1CCCC2 0.0987

What value of thallium flux rate (normalised fluorescence) has been recorded for this entry: CCC(CC)NC(=O)CSc1nnc(-c2c[nH]c3ccccc23)o1 0.00757

What value of thallium flux rate (normalised fluorescence) has been recorded for this entry: Oc1c(C=Nc2cccc3nsnc23)ccc2ccccc12 0.00781

What value of thallium flux rate (normalised fluorescence) has been recorded for this entry: O=C(Cn1cnc2c(nnn2Cc2ccc(F)cc2)c1=O)NCc1ccc2c(c1)OCO2 0.00772

What value of thallium flux rate (normalised fluorescence) has been recorded for this entry: Cc1onc(-c2ccccc2)c1C(=O)NNC(=S)NC(=O)c1ccc(F)cc1 0.018

What value of thallium flux rate (normalised fluorescence) has been recorded for this entry: Cc1cc(C)nc(SC(C)C(=O)N/N=C/c2cccs2)n1 (stereo not drawn) 0.00741

What value of thallium flux rate (normalised fluorescence) has been recorded for this entry: CC(=O)NNc1cc(=O)c2c(=O)n(C)c(=O)n(C)c2[nH]1 0.00797

What value of thallium flux rate (normalised fluorescence) has been recorded for this entry: Cc1cccc(NC(=S)NC(=O)c2ccc(Br)o2)c1 0.129

What value of thallium flux rate (normalised fluorescence) has been recorded for this entry: Cc1sc2ncnc(Sc3nc4ccccc4s3)c2c1C 0.00801

What value of thallium flux rate (normalised fluorescence) has been recorded for this entry: COc1ccc(CN2CCCCC2C)cc1OC (stereo not drawn) 0.00759

What value of thallium flux rate (normalised fluorescence) has been recorded for this entry: COC(=O)c1sccc1NC(=O)CCC1CCCC1 0.00709

What value of thallium flux rate (normalised fluorescence) has been recorded for this entry: Cc1ccc(/C=N/NC(=S)NC2CCCCC2)o1 0.0111

What value of thallium flux rate (normalised fluorescence) has been recorded for this entry: C(=N\n1cnnc1)/c1cccnc1 0.0072

What value of thallium flux rate (normalised fluorescence) has been recorded for this entry: C[C@@H](C(=O)Nc1ccc2ccccc2c1)[C@@H]1C[C@@]1(C)[C@@H](NC(=O)c1cccnc1)c1ccccc1 0.00775

What value of thallium flux rate (normalised fluorescence) has been recorded for this entry: COc1ccc(NC(=O)COC(=O)c2ccc(NS(=O)(=O)/C=C/c3ccccc3)cc2)cc1 0.00722

What value of thallium flux rate (normalised fluorescence) has been recorded for this entry: CNC(=O)/C(=C\C=C\c1ccccc1)NC(=O)c1ccc([N+](=O)[O-])cc1 0.00796

What value of thallium flux rate (normalised fluorescence) has been recorded for this entry: O=C(Nc1nc2c(F)cc(F)cc2s1)C1COc2ccccc2O1 (stereo not drawn) 0.0378

What value of thallium flux rate (normalised fluorescence) has been recorded for this entry: O=C(CSC1=NCCS1)Nc1nc(-c2ccccc2)cs1 0.00757

What value of thallium flux rate (normalised fluorescence) has been recorded for this entry: COc1ccc(C2/C=C\CN(S(=O)(=O)c3cccs3)CC(=O)N2Cc2ccc(F)cc2)cc1 (stereo not drawn) 0.00682
